System: 233499-124-R-J3-PDC complex spheroid viability;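 further: spheroids exposed to the drug combinations for seven days; percent viability relative to DMSO vehicle control wells taken as 100%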
run-description: Anticancer human tumor 233499-124-R-J3-PDC patient-derived colon adenocarcinoma cell line growth inhibition [CLK]
test-context: second compound 0.316 µM; first compound 0.000949 µM; hits give low values
The reader will find reported viability, T/C values listed item by item below.
measurement-name: viability, T/C

INSERT INTO assay_data (compound, test_result) VALUES
  ('CC(C)CC(NC(=O)C(Cc1ccccc1)NC(=O)c1cnccn1)B(O)O (centres undefined) + CN1CCN(c2cc(C(=O)Nc3cc4cc(-c5cnn(C)c5)ccc4cn3)ccn2)CC1', '96.5%'),
  ('C=CC(=O)Nc1cc(Nc2nccc(-c3cn(C)c4ccccc34)n2)c(OC)cc1N(C)CCN(C)C + CNC(=O)c1ccc(Nc2nc(OC3CCCC3)c3c(-c4ccc5nc(C)oc5c4)c[nH]c3n2)c(OC)c1', '70%'),
  ('C=CC(=O)Nc1cc(Nc2nccc(-c3cn(C)c4ccccc34)n2)c(OC)cc1N(C)CCN(C)C + CN1CCN(c2cc(C(=O)Nc3cc4cc(-c5cnn(C)c5)ccc4cn3)ccn2)CC1', '90.3%'),
  ('CC(C)CC(NC(=O)C(Cc1ccccc1)NC(=O)c1cnccn1)B(O)O (centres undefined) + CNC(=O)c1ccc(Nc2nc(OC3CCCC3)c3c(-c4ccc5nc(C)oc5c4)c[nH]c3n2)c(OC)c1', '69.5%');

Origin of measurements: PubChem BioAssay AID2060613
